Entries and their Bmax
test system: T1, recombinant mouse integrin-αvβ1 (mouse, UniProt P43406 31-988; P09055 21-728, limits assumed)
T1 construct: also called Recombinant Mouse Integrins
T1 sequence (P43406 31-988 limits assumed, chain 1 of 2): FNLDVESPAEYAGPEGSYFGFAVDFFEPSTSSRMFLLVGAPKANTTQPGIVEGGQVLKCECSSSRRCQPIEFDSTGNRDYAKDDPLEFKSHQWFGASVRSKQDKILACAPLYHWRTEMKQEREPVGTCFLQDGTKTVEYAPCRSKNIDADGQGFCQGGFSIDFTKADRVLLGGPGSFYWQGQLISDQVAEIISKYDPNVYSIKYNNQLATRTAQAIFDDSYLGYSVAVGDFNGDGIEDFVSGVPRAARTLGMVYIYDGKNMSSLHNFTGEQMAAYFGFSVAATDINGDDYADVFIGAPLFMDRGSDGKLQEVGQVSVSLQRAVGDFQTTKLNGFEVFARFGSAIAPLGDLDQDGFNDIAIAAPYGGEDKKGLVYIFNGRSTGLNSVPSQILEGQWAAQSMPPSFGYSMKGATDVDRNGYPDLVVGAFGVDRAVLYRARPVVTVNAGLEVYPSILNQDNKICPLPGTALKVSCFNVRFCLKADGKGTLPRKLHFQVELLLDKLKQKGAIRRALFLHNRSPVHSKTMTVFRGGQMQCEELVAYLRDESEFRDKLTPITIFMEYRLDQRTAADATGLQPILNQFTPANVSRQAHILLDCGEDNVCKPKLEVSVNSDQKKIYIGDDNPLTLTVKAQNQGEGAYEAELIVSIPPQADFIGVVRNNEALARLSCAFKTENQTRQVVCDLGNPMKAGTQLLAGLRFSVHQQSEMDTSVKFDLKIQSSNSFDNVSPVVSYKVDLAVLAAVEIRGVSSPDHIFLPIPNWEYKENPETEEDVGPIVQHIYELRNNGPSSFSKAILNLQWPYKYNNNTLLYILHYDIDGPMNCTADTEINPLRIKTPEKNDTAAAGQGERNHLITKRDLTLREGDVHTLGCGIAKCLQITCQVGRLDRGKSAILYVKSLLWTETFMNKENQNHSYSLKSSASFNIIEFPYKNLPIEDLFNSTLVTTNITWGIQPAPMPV
T1 sequence (P09055 21-728 limits assumed, chain 2 of 2): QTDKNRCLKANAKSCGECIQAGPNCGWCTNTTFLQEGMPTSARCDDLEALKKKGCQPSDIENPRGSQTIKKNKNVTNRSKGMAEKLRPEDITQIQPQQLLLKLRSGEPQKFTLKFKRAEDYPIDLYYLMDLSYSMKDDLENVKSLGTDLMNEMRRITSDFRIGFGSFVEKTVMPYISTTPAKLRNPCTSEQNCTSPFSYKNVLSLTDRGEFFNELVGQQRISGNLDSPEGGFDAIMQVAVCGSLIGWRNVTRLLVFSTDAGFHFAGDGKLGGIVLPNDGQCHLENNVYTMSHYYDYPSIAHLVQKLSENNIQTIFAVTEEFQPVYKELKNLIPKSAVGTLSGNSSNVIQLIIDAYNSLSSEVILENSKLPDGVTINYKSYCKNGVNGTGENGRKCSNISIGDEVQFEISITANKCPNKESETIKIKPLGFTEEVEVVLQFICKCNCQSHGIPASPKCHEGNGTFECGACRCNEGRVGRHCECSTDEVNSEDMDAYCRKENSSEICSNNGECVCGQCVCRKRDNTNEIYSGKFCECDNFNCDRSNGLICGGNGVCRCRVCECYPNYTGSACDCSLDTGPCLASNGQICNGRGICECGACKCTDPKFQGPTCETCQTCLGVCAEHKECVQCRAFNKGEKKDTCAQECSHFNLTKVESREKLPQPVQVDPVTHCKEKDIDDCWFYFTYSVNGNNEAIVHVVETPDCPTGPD
experiment notes: IgG titration on recombinant mouse integrin αvβ1, one site-total fit; assay format not stated
readout type: Bmax

{"binder": "IgG clone 10404, hG1/hk (pSCSTa-hG1 (10404) heavy chain, pSCSTa-hK (10404) light chain) (antibody, V domains shown, Full-length human IgG1/kappa made in Expi293 cells) VH: EVQLVESGGGLVQPGGSLRLSCAASGFNLYSSSIHWVRQAPGKGLEWVAYIYPSYGYTSTYADSVKGRFTISADTSKNTAYLQMNSLRAEDTAVYYCARPAPYYSWYPAMDYWGQGTLVTVSS VL: DIQMTQSPSSLSASVGDRVTITCRASQSVSSAVAWYQQKPGKAPKLLIYSASSLYSGVPSRFSGSRSGTDFTLTISSLQPEDFATYYCQQASGSPFTFGQGTKVEIKR", "readout type": "Bmax", "reported value": 1.09}
{"binder": "10392 hG1 LALA PG/hk (antibody, human IgG1, V domains shown, not shown: human IgG1 constant region with 'LALA PG' changes) VH: EVQLVESGGGLVQPGGSLRLSCAASGFNIYYSSIHWVRQAPGKGLEWVASISSSSGSTSTYADSVKGRFTISADTSKNTAYLQMNSLRAEDTAVYYCARSYYGGGYPYALDYWGQGTLVTVSS VL: DIQMTQSPSSLSASVGDRVTITCRASQSVSSAVAWYQQKPGKAPKLLIYSASSLYSGVPSRFSGSRSGTDFTLTISSLQPEDFATYYCQQYFGGLITFGQGTKVEIKR", "readout type": "Bmax", "reported value": 0.555}
{"binder": "10392 hG4/hk (antibody, human IgG4, V domains shown, not shown: human IgG4 constant region ('hG4')) VH: EVQLVESGGGLVQPGGSLRLSCAASGFNIYYSSIHWVRQAPGKGLEWVASISSSSGSTSTYADSVKGRFTISADTSKNTAYLQMNSLRAEDTAVYYCARSYYGGGYPYALDYWGQGTLVTVSS VL: DIQMTQSPSSLSASVGDRVTITCRASQSVSSAVAWYQQKPGKAPKLLIYSASSLYSGVPSRFSGSRSGTDFTLTISSLQPEDFATYYCQQYFGGLITFGQGTKVEIKR", "readout type": "Bmax", "reported value": 0.85}
